Attribution: paper PMC4391263

- target-entity: Pol-γA P1073L (exo+);Pol-γB accessory subunit (Homo sapiens;Homo sapiens, UniProt P54098;Q9UHN1 26-1239;26-485, P1073L|)
- Sequence (P54098 26-1239 P1073L, chain 1 of 2): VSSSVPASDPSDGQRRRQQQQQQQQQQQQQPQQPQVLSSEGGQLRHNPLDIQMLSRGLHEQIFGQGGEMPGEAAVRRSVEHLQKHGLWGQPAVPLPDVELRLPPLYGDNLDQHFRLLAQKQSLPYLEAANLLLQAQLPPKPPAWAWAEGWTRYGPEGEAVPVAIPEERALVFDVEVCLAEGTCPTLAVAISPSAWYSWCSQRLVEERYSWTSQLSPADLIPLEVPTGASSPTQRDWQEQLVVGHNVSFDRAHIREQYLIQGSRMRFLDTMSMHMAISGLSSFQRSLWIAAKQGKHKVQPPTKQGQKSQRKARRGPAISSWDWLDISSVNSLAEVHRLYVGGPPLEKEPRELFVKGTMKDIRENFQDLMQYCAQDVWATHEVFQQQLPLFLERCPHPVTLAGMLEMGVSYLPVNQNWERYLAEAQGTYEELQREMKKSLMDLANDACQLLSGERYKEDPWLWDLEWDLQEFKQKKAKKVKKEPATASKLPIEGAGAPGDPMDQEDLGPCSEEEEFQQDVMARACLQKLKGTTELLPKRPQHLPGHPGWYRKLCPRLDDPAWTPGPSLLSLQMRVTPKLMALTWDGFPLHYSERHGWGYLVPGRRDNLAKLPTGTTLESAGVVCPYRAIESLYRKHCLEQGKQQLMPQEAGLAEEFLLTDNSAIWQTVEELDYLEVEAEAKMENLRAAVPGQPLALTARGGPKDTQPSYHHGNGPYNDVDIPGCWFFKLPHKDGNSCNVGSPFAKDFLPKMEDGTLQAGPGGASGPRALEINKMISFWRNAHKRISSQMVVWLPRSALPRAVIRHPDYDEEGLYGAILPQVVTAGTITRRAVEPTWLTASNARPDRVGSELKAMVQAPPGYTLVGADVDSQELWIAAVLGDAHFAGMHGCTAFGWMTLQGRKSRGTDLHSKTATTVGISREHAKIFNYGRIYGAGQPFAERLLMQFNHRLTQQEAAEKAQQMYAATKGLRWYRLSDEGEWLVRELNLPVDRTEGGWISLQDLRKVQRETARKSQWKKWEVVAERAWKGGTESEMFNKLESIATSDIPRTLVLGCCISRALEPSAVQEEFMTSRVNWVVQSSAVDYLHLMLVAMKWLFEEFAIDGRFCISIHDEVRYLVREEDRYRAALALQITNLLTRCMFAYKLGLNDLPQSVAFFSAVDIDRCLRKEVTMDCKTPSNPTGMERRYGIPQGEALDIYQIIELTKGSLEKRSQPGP
- Sequence (Q9UHN1 26-485, chain 2 of 2): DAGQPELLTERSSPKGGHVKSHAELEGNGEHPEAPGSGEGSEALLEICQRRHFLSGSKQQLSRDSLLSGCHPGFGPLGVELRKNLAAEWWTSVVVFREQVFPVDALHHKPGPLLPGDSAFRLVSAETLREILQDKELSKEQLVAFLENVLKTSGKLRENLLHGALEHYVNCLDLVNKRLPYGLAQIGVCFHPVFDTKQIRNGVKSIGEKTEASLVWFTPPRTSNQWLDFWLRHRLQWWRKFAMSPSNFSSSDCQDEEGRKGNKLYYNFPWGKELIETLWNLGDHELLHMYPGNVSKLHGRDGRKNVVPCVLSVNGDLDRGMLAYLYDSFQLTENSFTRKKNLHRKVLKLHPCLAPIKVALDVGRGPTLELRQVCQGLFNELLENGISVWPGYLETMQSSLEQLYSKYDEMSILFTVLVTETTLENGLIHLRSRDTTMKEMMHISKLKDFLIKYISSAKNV
- test: global fit of processive polymerization time course; 12.5 mM MgCl2; dATP, dCTP, TTP 5 μM each; 12.5 mM Mg2+, 37 °C; enzyme and DNA preincubated, rapid quench flow; buffer, salt and pH not given in the material. Table 1 WT Kd (9.9 ± 2.1 nM) is asterisked as apparently earlier data and not listed
- condition-description: protein: recombinant;recombinant; tags: ;; copies: 1;2; label: 5'-32P primer; 5' overhang 20 nt on template, recessed primer 3' end
value-kind: pKd
In plain terms, pKd is the concentration in mol/L turned into minus its base-10 logarithm.

pKd recorded for this binder, 25-mer/45-mer primer-template (dsDNA) DNA 1: GCCTCGCAGCCGTCCAACCAACTCA DNA 2: GGACGGCATTGGATCGAGGTTGAGTTGGTTGGACGGCTGCGAGGC , is 7.82
